// compounds with IC50 on Receptor tyrosine-protein kinase erbB-2 (Homo sapiens), multi-source literature

INSERT INTO assay_data (compound_string, tgt, reported_property, reported) VALUES
  ('COC(=O)c1ccc(-c2cc(Nc3ncnc(Nc4cccc5ncccc45)n3)[nH]n2)cc1', 'Receptor tyrosine-protein kinase erbB-2 (Homo sapiens)', 'IC50', '> 10300 nM'),
  ('Fc1ccc(CNc2ncccc2-c2ncnc(Nc3ccc(N4CCOCC4)cc3)n2)cc1', 'Receptor tyrosine-protein kinase erbB-2 (Homo sapiens)', 'IC50', '> 9840 nM'),
  ('O=C(O)Cc1cccc(Nc2ncnc(-n3c(NCc4ccccn4)nc4ccccc43)n2)c1', 'Receptor tyrosine-protein kinase erbB-2 (Homo sapiens)', 'IC50', '> 9950 nM'),
  ('CN(c1ccc(F)c(Cl)c1)c1ncnc(Nc2cccc(Br)c2)n1', 'Receptor tyrosine-protein kinase erbB-2 (Homo sapiens)', 'IC50', '> 11000 nM');

Problem: Give recorded IC50. CC(C)c1nc(-c2ccc(F)c(NS(=O)(=O)c3c(F)cccc3F)c2)c(-c2ccnc(Nc3ccncc3)n2)s1
Result: > 1000 nM

Problem: Give recorded IC50. COc1cc(N2CCN(CCS(C)(=O)=O)CC2)c(C)cc1Nc1nccc(-c2sc(C(C)(C)C)nc2-c2cccc(NS(=O)(=O)c3c(F)cccc3F)c2)n1
Result: < 100 nM

Problem: Give recorded IC50. CN(c1cccc(Cl)c1)c1ncnc(Nc2cc(Cl)c(Cl)c(Cl)c2)n1
Result: > 10800 nM

Problem: Give recorded IC50. [2H]C1([2H])C([2H])([2H])C2(COc3cccc(-c4cn([C@H]5C[C@@H](N6CC[S+]([O-])CC6)C5)c5ncnc(N)c45)c3F)OC1([2H])C([2H])([2H])C2([2H])[2H]
Result: > 10000 nM

###

pIC50: −log10 of the molar value.
// compounds with pIC50 on Receptor tyrosine-protein kinase erbB-2 (Homo sapiens), multi-source literature

INSERT INTO assay_data (compound_string, reported) VALUES
  ('COc1cc(Nc2ncnc(-c3cccnc3Nc3ccc(Oc4ccccc4)cc3)n2)cc(OC)c1OC', '5.34 to 6.12'),
  ('COc1ccc(Nc2ncnc(NCc3c(C)cccc3Cl)n2)cc1OC', '5.04 to 5.21'),
  ('COc1cc(N2CCN(CCS(C)(=O)=O)CC2)c(C)cc1Nc1nccc(-c2sc(CC(C)C)nc2-c2cccc(NS(=O)(=O)c3c(F)cccc3F)c2)n1', '> 7.00'),
  ('COC(=O)c1ccc(-c2cc(Nc3ncnc(NCCCO)n3)[nH]n2)cc1', '< 4.91'),
  ('CCOC(=O)c1sc2nc(N3CCOCC3)c(C#N)c3c2c1NC(=O)N3c1c(Cl)ccc2c1OCO2', '< 4.00');

In the following, a different compound is considered.
Problem: Give recorded pIC50. COc1cc(-c2nc(N3CCCC3)sc2-c2ccnc(Nc3ccc(OCCN4CCCC4)c(F)c3)n2)ccc1Cl
Result: 6.00 to 7.00

###

// molecules with IC50 on Receptor tyrosine-protein kinase erbB-2 (Homo sapiens, UniProt P04626), multi-source literature

INSERT INTO measurements (molecule, reported_property, reported) VALUES
  ('CN(c1cccc(Cl)c1)c1ncnc(NCC2CCCO2)n1 (centres unmarked)', 'IC50', '> 14.1 µM'),
  ('CN(c1cccc(Cl)c1)c1ncnc(Nc2ccc3cn[nH]c3c2)n1', 'IC50', '> 12.8 µM'),
  ('Nc1ncnc2c1c(-c1cccc(OC[C@@H]3CCCO3)c1F)cn2[C@H]1C[C@@H](CN2CC[S+]([O-])CC2)C1', 'IC50', '> 10 µM'),
  ('COc1cc2c(Nc3ccc(Cl)c(Cl)c3)ncnc2cc1OCc1nc(-c2ccc(N3CCCC3)cc2)cs1', 'IC50', '< 0.05 µM'),
  ('COC(=O)Cc1cccc(Nc2ncnc(-n3c(NCc4ccc(OC)cc4)nc4ccccc43)n2)c1', 'IC50', '> 9.08 µM'),
  ('COc1ccc(Nc2ncnc(N(C)C3CCCCC3)n2)cc1OC', 'IC50', '6.99 to 10.2 µM'),
  ('COc1cc(Nc2ncnc(Nc3cccc4ccccc34)n2)cc(OC)c1OCCN1CCOCC1', 'IC50', '< 0.796 µM');

In the following, a different molecule is considered.
Problem: Using Receptor tyrosine-protein kinase erbB-2 (Homo sapiens, UniProt P04626) as the test system, report measured IC50 of COc1ccc(CNc2nc3ccccc3n2-c2ncnc(Nc3cc(OC)c(OC)c(OC)c3)n2)cc1OC .
Result: 0.736 to 4.42 µM

###

// compounds with pIC50 on Receptor tyrosine-protein kinase erbB-2 (Homo sapiens, UniProt P04626), multi-source literature
pIC50: −log10 of the molar value.

INSERT INTO measurements (compound, tgt, reported) VALUES
  ('CC(C)c1nc(-c2cc(F)cc(NS(=O)(=O)c3c(F)cccc3F)c2)c(-c2ccnc(Nc3ccc(N4CCOCC4)c(F)c3)n2)s1', 'Receptor tyrosine-protein kinase erbB-2 (Homo sapiens, UniProt P04626)', '6.00 to 7.00');

Problem: Using Receptor tyrosine-protein kinase erbB-2 (Homo sapiens, UniProt P04626) as the test system, report measured pIC50 of O=C(Cc1ccc(Cl)c(Cl)c1)NCC#Cc1cc2ncnc(Nc3ccc(OCc4cccc(F)c4)c(Cl)c3)c2s1 .
Result: < 7.00

Problem: Using Receptor tyrosine-protein kinase erbB-2 (Homo sapiens, UniProt P04626) as the test system, report measured pIC50 of CN(C)C/C=C/C(=O)Nc1cc2c(Nc3ccc(F)c(Cl)c3)ncnc2cc1OCC12COCC1C2 (stereo not shown) .
Result: 7.04

Problem: Using Receptor tyrosine-protein kinase erbB-2 (Homo sapiens, UniProt P04626) as the test system, report measured pIC50 of CCc1cccc(Nc2ncnc(-n3c(N)nc4ccccc43)n2)c1 .
Result: 5.14 to 5.92

###

pIC50: −log10 of the molar value.
// compounds with pIC50 on Receptor tyrosine-protein kinase erbB-2 (Homo sapiens, UniProt P04626), multi-source literature

Example compounds with recorded pIC50:
INSERT INTO measurements (compound, reported) VALUES
  ('CO/N=C/c1c(N)ncnc1Nc1ccc2oc(Cc3ccccc3)cc2c1', 5.54),
  ('C=CC(=O)N1CCOc2c1ccc1ncnc(Nc3ccc(Sc4ccc(F)cc4)cc3)c21', '≥ 7.30'),
  ('N#Cc1cnc2sc(C(=O)Nc3ccc(CN4CCCC(F)C4)cc3)c3c2c1N(c1c(Cl)ccc2c1OCO2)C(=O)N3 (centres unmarked)', 5.96),
  ('CCN(CC)CCNc1ncnc(N(C)c2cccc(Cl)c2)n1', '< 4.87'),
  ('COc1ccc(Nc2ncnc(N(C)c3ccc(Cl)cc3)n2)cc1OC', '> 5.97');

Problem: Give recorded pIC50. NC(=O)Cc1cccc(Nc2ncnc(Nc3cc(-c4ccccc4)n[nH]3)n2)c1
Result: 5.21 to 5.98

Problem: Give recorded pIC50. CN1CCN(Cc2ccc(-c3cc4c(Nc5ccc(OCc6ccccc6)cc5)ncnc4[nH]3)cc2)CC1
Result: 7.50

Problem: Give recorded pIC50. COc1cc2c(Nc3ccc(Cl)c(Cl)c3)ncnc2cc1OCc1ccc2nonc2c1
Result: > 7.30

###

// compounds with pIC50 on Receptor tyrosine-protein kinase erbB-2 (Homo sapiens), multi-source literature
pIC50: −log10 of the molar value.

Example compounds with recorded pIC50:
INSERT INTO results (compound_string, tgt, reported) VALUES
  ('C=CC(=O)N1CCOc2c1ccc1ncnc(Oc3ccc(OCc4cccc(F)c4)cc3)c21', 'Receptor tyrosine-protein kinase erbB-2 (Homo sapiens)', '≥ 7.30'),
  ('COc1cc2c(Nc3ccc(Cl)c(Cl)c3)ncnc2cc1OCc1ccc2nc(C(F)(F)F)cc(Cl)c2c1', 'Receptor tyrosine-protein kinase erbB-2 (Homo sapiens)', '> 7.30'),
  ('COc1cc(Nc2ncnc(-c3cccnc3NCc3cccc4ccccc34)n2)cc(OC)c1OC', 'Receptor tyrosine-protein kinase erbB-2 (Homo sapiens)', '5.31 to 6.09'),
  ('O=S(=O)(Nc1cccc(-c2ncsc2-c2ccnc(Nc3ccc(N4CCOCC4)nc3)n2)c1)c1c(F)cccc1F', 'Receptor tyrosine-protein kinase erbB-2 (Homo sapiens)', '< 6.00'),
  ('O=C(/C=C/CN1CCC(O)CC1)N1CCOc2c1ccc1ncnc(Nc3ccc(OCc4ccccn4)c(Cl)c3)c21', 'Receptor tyrosine-protein kinase erbB-2 (Homo sapiens)', '≥ 7.30'),
  ('O=C(/C=C/CNC1CC1)N1CCOc2c1ccc1ncnc(Nc3ccc(OCc4ccccn4)c(Cl)c3)c21', 'Receptor tyrosine-protein kinase erbB-2 (Homo sapiens)', '6.30 to 7.30');

Problem: Using Receptor tyrosine-protein kinase erbB-2 (Homo sapiens) as the test system, report measured pIC50 of NC(=O)Cc1cccc(Nc2ncnc(-n3c(NCc4ccccc4)nc4ccccc43)n2)c1 .
Result: 5.27 to 6.05
